test: Cytotoxicity against mouse J774 cells after 24 hrs by WST-1 assay; assay type: toxicity, cell-based
Measured CC50 at 24 h values are reported for all entries that follow.
Measured Attribute: CC50 at 24 h

O=C1C=C(Oc2ccc3cccnc3c2)C(=O)c2ccccc21 = < 50 µM
O=C1C=CC(=O)c2oc(-c3ccccc3)nc21 = < 10 µM
O=C1C=C(Oc2ccccc2)C(=O)c2sc(-c3ccccc3)nc21 = < 10 µM

* * *

Measured selectivity ratio values are reported for all entries that follow.
assay: Selectivity index, ratio of CC50 for cytotoxicity against mouse J774 cells to EC50 for trypanocidal activity against blood stream form Trypanosoma brucei 427; type: toxicity, cell-based; details: read-out: Ratio CC50/EC50
Measured Attribute: selectivity ratio

O=C1C=C(Oc2ccc(F)cc2)C(=O)c2sc(-c3ccccc3)nc21 = < 2
O=C1C=C(Oc2ccc(CO)cc2)C(=O)c2ccccc21 = ~11
O=C1C=C(Oc2ccccc2)C(=O)c2sc(-c3ccccc3)nc21 = < 6
O=C1C=CC(=O)c2oc(-c3ccccc3)nc21 = < 4
CC1CS(=O)(=O)CCN1/N=C/c1ccc([N+](=O)[O-])o1 (centres undefined) = 19
O=C1C=CC(=O)c2oc(-c3ccccc3)cc21 = 44
CC(C)(C)c1ccc(OC2=CC(=O)c3ccccc3C2=O)cc1 = < 9
O=C1C=C(Oc2ccc3cc(O)ccc3c2)C(=O)c2ccccc21 = ~14
O=C1C=C(Br)C(=O)c2oc(-c3ccccc3)nc21 = < 6
O=C1C(Nc2ccccc2)=C(Br)C(=O)c2sc(-c3ccccc3)nc21 = < 22
O=C1C=C(Oc2ccc3cccnc3c2)C(=O)c2ccccc21 = < 13
O=C1C(Nc2ccccc2)=C(Br)C(=O)c2oc(-c3ccccc3)cc21 = 63
COc1ccc2cc(OC3=CC(=O)c4ccccc4C3=O)ccc2c1 = ~10
COc1ccc(OC2=CC(=O)c3nc(-c4ccccc4)sc3C2=O)cc1 = 43

* * *

assay: Selectivity index, ratio of CC50 for cytotoxicity against mouse J774 cells to EC50 for trypanocidal activity against blood stream form Trypanosoma brucei 427; type: toxicity, cell-based; conditions: read-out: Ratio CC50/EC50
Measured selectivity ratio values are reported for all entries that follow.
Measured Attribute: selectivity ratio

O=C1C=C(Br)C(=O)c2sc(-c3ccccc3)nc21 = 40
O=C1C=C(Oc2ccccc2)C(=O)c2oc(-c3ccccc3)cc21 = 13
O=C1C=C(Oc2ccccc2)C(=O)c2oc(-c3ccccc3)nc21 = 14
O=C1C=C(Br)C(=O)c2oc(-c3ccccc3)cc21 = 2

* * *

experiment: Cytotoxicity against mouse J774 cells after 24 hrs by WST-1 assay; format: toxicity, cell-based
Measured Attribute: CC50 at 24 h

O=C1C=C(Oc2ccccc2)C(=O)c2oc(-c3ccccc3)nc21 = 46 µM
O=C1C=C(Br)C(=O)c2sc(-c3ccccc3)nc21 = 61 µM
O=C1C=C(Oc2ccccc2)C(=O)c2oc(-c3ccccc3)cc21 = 37 µM
CC1CS(=O)(=O)CCN1/N=C/c1ccc([N+](=O)[O-])o1 (stereo unspecified) = 100 µM
CC(C)(C)c1ccc(OC2=CC(=O)c3ccccc3C2=O)cc1 = < 50 µM
O=C1C=C(Br)C(=O)c2oc(-c3ccccc3)cc21 = 59 µM
O=C1C=CC(=O)c2sc(-c3ccccc3)nc21 = < 10 µM
O=C1C=C(Oc2ccc3cc(O)ccc3c2)C(=O)c2ccccc21 = ~50 µM
CCCCCCCCCCCCCCCCOP(=O)([O-])OCC[N+](C)(C)C = 50 µM
O=C1C=C(Br)C(=O)c2oc(-c3ccccc3)nc21 = < 10 µM
O=C1C(Nc2ccccc2)=C(Br)C(=O)c2oc(-c3ccccc3)nc21 = < 10 µM

* * *

test system: Trypanosoma cruzi; experiment: Trypanocidal activity against Trypanosoma cruzi DM28c amastigotes expressing red-shifted luciferase gene infected in african green monkey Vero cells incubated for 72 hrs by microplate luminometer analysis; assay type: functional, organism-based
Measured Attribute: EC50 (nM)

COc1ccc(OC2=CC(=O)c3nc(-c4ccccc4)sc3C2=O)cc1 = 1100
O=C1C(Nc2ccccc2)=C(Br)C(=O)c2oc(-c3ccccc3)cc21 = 800
CC1CS(=O)(=O)CCN1/N=C/c1ccc([N+](=O)[O-])o1 (stereo not drawn) = 700

* * *

test system: J774; assay: Cytotoxicity against mouse J774 cells at 50 uM after 24 hrs by WST-1 assay relative to control; format: toxicity, cell-based; settings: j774, 24 h
Measured Attribute: Activity (%)

CC(C)(C)c1ccc(OC2=CC(=O)c3ccccc3C2=O)cc1 = 24
O=C1C=C(Oc2ccc(CO)cc2)C(=O)c2ccccc21 = 49
O=C1C=C(Oc2ccc3cccnc3c2)C(=O)c2ccccc21 = 37
O=C1C=C(Oc2ccc3cc(O)ccc3c2)C(=O)c2ccccc21 = 63
COc1ccc2cc(OC3=CC(=O)c4ccccc4C3=O)ccc2c1 = 57

* * *

Measured CC50 at 24 h values are reported for all entries that follow.
assay: Cytotoxicity against mouse J774 cells after 24 hrs by WST-1 assay; assay type: toxicity, cell-based
Measured Attribute: CC50 at 24 h (µM)

C[C@@H]1[C@H](O)[C@@H](C)/C=C/C=C/C=C/C=C/C=C/C=C/C=C/[C@H](O[C@@H]2O[C@H](C)[C@@H](O)[C@H](N)[C@@H]2O)C[C@@H]2O[C@](O)(C[C@@H](O)C[C@@H](O)[C@H](O)CC[C@@H](O)C[C@@H](O)CC(=O)O[C@H]1C)C[C@H](O)[C@H]2C(=O)O [AMPHOTERICIN B] = 9
O=C1C=CC(=O)c2oc(-c3ccccc3)cc21 = 118
COc1ccc(OC2=CC(=O)c3nc(-c4ccccc4)sc3C2=O)cc1 = 78
O=C1C(Nc2ccccc2)=C(Br)C(=O)c2oc(-c3ccccc3)cc21 = 57

* * *

tested on: J774; experiment: Cytotoxicity against mouse J774 cells at 10 uM after 24 hrs by WST-1 assay relative to control; assay type: toxicity, cell-based; settings: j774, 24 h
Measured Attribute: Activity (%)

O=C1C=C(Oc2ccc(F)cc2)C(=O)c2sc(-c3ccccc3)nc21 = 5
O=C1C=CC(=O)c2oc(-c3ccccc3)nc21 = 21
O=C1C(Nc2ccccc2)=C(Br)C(=O)c2oc(-c3ccccc3)nc21 = 0.5
O=C1C(Nc2ccccc2)=C(Br)C(=O)c2sc(-c3ccccc3)nc21 = 117
O=C1C=C(Br)C(=O)c2oc(-c3ccccc3)nc21 = 10
O=C1C=CC(=O)c2sc(-c3ccccc3)nc21 = 0
O=C1C=C(Oc2ccccc2)C(=O)c2sc(-c3ccccc3)nc21 = 40

* * *

assay: Cytotoxicity against mouse J774 cells after 24 hrs by WST-1 assay; assay type: toxicity, cell-based
Measured CC50 at 24 h values are reported for all entries that follow.
Measured Attribute: CC50 at 24 h

O=C1C=C(Oc2ccc(F)cc2)C(=O)c2sc(-c3ccccc3)nc21 = < 10 µM
O=C1C=C(Oc2ccc(CO)cc2)C(=O)c2ccccc21 = ~50 µM
COc1ccc2cc(OC3=CC(=O)c4ccccc4C3=O)ccc2c1 = ~50 µM
O=C1C(Nc2ccccc2)=C(Br)C(=O)c2sc(-c3ccccc3)nc21 = < 10 µM
